tested-target: Jun bZIP R261A;Fos bZIP R157A (human;human, UniProt P05412;P01100 252-315;137-200, R261A|R157A)
Sequence (P05412 252-315 R261A, chain 1 of 2): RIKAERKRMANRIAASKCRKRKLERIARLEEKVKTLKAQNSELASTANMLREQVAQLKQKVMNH
Sequence (P01100 137-200 R157A, chain 2 of 2): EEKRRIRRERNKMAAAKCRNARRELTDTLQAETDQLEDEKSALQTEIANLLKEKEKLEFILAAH
experiment-description: ITC

binder | Kd / nM
TRE duplex 15-mer (dsDNA) DNA 1: CGCGTGACTCACCCC DNA 2: GGGGTGAGTCACGCG | 890
